# experiment description: qHTS of pediatric cancer cell lines to identify multiple opportunities for drug repurposing: Confirmatory screen for Saos-2 cells (AID 1347127); note: nearly all actives have a fitted effect of over 60% in size
# protocol conditions: Saos-2 osteosarcoma cell viability; series mostly up to 45.9 µM
Results filed as inconclusive are left out. Active and inactive are the calls of the source. Calls come from the whole dose curve; as a rule, active = well fitted cell-killing curve with a large enough effect; inconclusive = small, poorly fitted or top-dose-only effect, or effect the other way; inactive = no such curve, though single readings can be large or run the other way.
Write down one outcome, taken from active, inactive

IN: Returns: the outcome recorded for Clc1ccc(C(Cn2ccnc2)OCc2ccsc2Cl)c(Cl)c1 (stereo not given) in this assay.
OUT: active

IN: Returns: the outcome recorded for Nc1nc(OCc2ccccc2)c2[nH]cnc2n1 in this assay.
OUT: inactive

IN: Returns: the outcome recorded for CC1(C)C(=O)N(CCN2CCC(C(=O)c3ccc(F)cc3)CC2)c2ccccc21 in this assay.
OUT: inactive

IN: Returns: the outcome recorded for O=C(NCC1CCCCN1)c1cc(OCC(F)(F)F)ccc1OCC(F)(F)F (stereo not given) in this assay.
OUT: inactive

IN: Returns: the outcome recorded for CN(C)c1ccc(O)c2c1C[C@H]1C[C@H]3[C@H](N(C)C)C(=O)C(C(N)=O)=C(O)[C@@]3(O)C(=O)C1=C2O in this assay.
OUT: inactive

IN: Returns: the outcome recorded for COc1cc(C(C)=O)ccc1OCCCN1CCC(c2noc3cc(F)ccc23)CC1 in this assay.
OUT: inactive

IN: Returns: the outcome recorded for Nc1nc(Cl)nc2c1ncn2[C@H]1C[C@H](O)[C@@H](CO)O1 in this assay.
OUT: inactive

IN: Returns: the outcome recorded for CCCCc1ccc2nc(NC(=O)OC)[nH]c2c1 in this assay.
OUT: active

IN: Returns: the outcome recorded for Cc1ccc(NC(=O)c2ccc(CN3CCN(C)CC3)cc2)cc1Nc1nccc(-c2cccnc2)n1 in this assay.
OUT: inactive

IN: Returns: the outcome recorded for CCOc1cc(CC(=O)N[C@@H](CC(C)C)c2ccccc2N2CCCCC2)ccc1C(=O)O in this assay.
OUT: inactive

* * *

# experiment description: Cell Viability - LYMP2-016 (AID 984);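 note: cells exposed to compound for 24 hours at 37 °C; nearly all actives have a fitted effect of over 55% in size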
# protocol conditions: LYMP2-016 lymphoblastoid cell viability, qHTS; series mostly up to 92.2 µM
Records with an inconclusive call do not appear. Activity calls are given as the source filed them. The call rests on the fitted dose curve; in most records, active means well fitted cell-killing curve with a large enough effect; inconclusive means small, poorly fitted or top-dose-only effect; inactive means flat fitted curve, though single readings scatter.
Write down one outcome, taken from yes for active, no for inactive

IN: Returns: the outcome recorded for CCCCC(CC)COC(=O)C(C#N)=C(c1ccccc1)c1ccccc1 (configuration not stated) in this assay.
OUT: no

IN: Returns: the outcome recorded for CCc1nc(N)nc(N)c1-c1ccc(Cl)cc1 in this assay.
OUT: no

IN: Returns: the outcome recorded for CC(=O)Nc1ccc(O)cc1 in this assay.
OUT: no

IN: Returns: the outcome recorded for CN(C)c1ccc2nc3ccc(=[N+](C)C)cc-3sc2c1 in this assay.
OUT: yes

IN: Returns: the outcome recorded for Cc1ccc(C)c(OCCCC(C)(C)C(=O)O)c1 in this assay.
OUT: no

IN: Returns: the outcome recorded for CCCc1cc(=O)[nH]c(=S)[nH]1 in this assay.
OUT: no

IN: Returns: the outcome recorded for c1ccc2[nH]c(-c3cscn3)nc2c1 in this assay.
OUT: no

* * *

# experiment description: Quantitative High-Throughput drug screen in 47 multiple myeloma cell lines against the NCATS MIPE library collection: ARP1_JJKsccF8 cell viability assay (AID 1918928; note: nearly all actives have a fitted effect of over 40% in size;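 for viability: 100% = DMSO only wells and 0% = medium only wells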)
# protocol conditions: ARP1 myeloma cells viability, CellTiter-Glo ATP, 48 h; series mostly up to 45.8 µM
Records with an inconclusive call do not appear. Activity calls are given as the source filed them. Calls follow the shape of the dose curve; as a rule, active = well fitted cell-killing curve with a large enough effect; inconclusive = small, poorly fitted or top-dose-only effect, or effect the other way; inactive = no such curve, though single readings can be large or run the other way. Non-standard residues stand in square brackets, D forms with d. Residues, ends and D or L forms follow the SMILES beside them. *: point of attachment. Sta = CC(C)C[C@H](N)[C@@H](O)CC(=O)O; Isovaleryl = CC(C)CC(=O)*
Write down one outcome, taken from active, inactive

IN: Returns: the outcome recorded for C[C@H](Cc1ccc(O)c(O)c1)[C@@H](C)Cc1ccc(O)c(O)c1 in this assay.
OUT: active

IN: Returns: the outcome recorded for O=c1c(O)c(-c2ccc(O)cc2O)oc2cc(O)cc(O)c12 in this assay.
OUT: inactive

IN: Returns: the outcome recorded for CCC[C@@H]1C[C@@H](C(=O)N[C@@H]([C@H]2O[C@H](SC)[C@H](O)[C@@H](O)[C@H]2O)[C@@H](C)O)N(C)C1 in this assay.
OUT: inactive

IN: Returns: the outcome recorded for CN(C)c1ccc2nc3ccc(=[N+](C)C)cc-3sc2c1 in this assay.
OUT: active

IN: Returns: the outcome recorded for Nc1nc(OCc2ccccc2)c2[nH]cnc2n1 in this assay.
OUT: active

IN: Returns: the outcome recorded for COc1cc(Nc2c(C#N)cnc3cc(OCCCN4CCN(C)CC4)c(OC)cc23)c(Cl)cc1Cl in this assay.
OUT: active

IN: Returns: the outcome recorded for CN1C(C(=O)Nc2ccccn2)=C(O)c2sccc2S1(=O)=O in this assay.
OUT: inactive

IN: Returns: the outcome recorded for O=C1CCc2ccc(OCCCCN3CCN(c4cccc(Cl)c4Cl)CC3)cc2N1 in this assay.
OUT: active

IN: Returns: the outcome recorded for Cc1ccc(C)c(OCCCC(C)(C)C(=O)O)c1 in this assay.
OUT: inactive

IN: Returns: the outcome recorded for CNC[C@H](O)c1ccc(O)c(O)c1 in this assay.
OUT: active

IN: Returns: the outcome recorded for O=C(O)CCNC(=O)c1ccc(N=Nc2ccc(O)c(C(=O)O)c2)cc1 in this assay.
OUT: inactive

IN: Returns: the outcome recorded for CCCCC(CC)COC(=O)C(C#N)=C(c1ccccc1)c1ccccc1 (stereo unspecified) in this assay.
OUT: inactive

IN: Returns: the outcome recorded for CCCCc1ccc2nc(NC(=O)OC)[nH]c2c1 in this assay.
OUT: active

IN: Returns: the outcome recorded for CN(C)CCCC1(c2ccc(F)cc2)OCc2cc(C#N)ccc21 (stereo unspecified) in this assay.
OUT: inactive

IN: Returns: the outcome recorded for CCCc1cc(=O)[nH]c(=S)[nH]1 in this assay.
OUT: inactive

IN: Returns: the outcome recorded for N=C(N=C(N)N)N1CCOCC1 in this assay.
OUT: inactive

IN: Returns: the outcome recorded for Nc1cc(C(Cl)=C(Cl)Cl)c(S(N)(=O)=O)cc1S(N)(=O)=O in this assay.
OUT: inactive

IN: Returns: the outcome recorded for CCCCN(CCCC)CCC(O)c1cc2c(Cl)cc(Cl)cc2c2cc(C(F)(F)F)ccc12 (stereo unspecified) in this assay.
OUT: inactive

IN: Returns: the outcome recorded for Clc1ccc(C(Cn2ccnc2)OCc2c(Cl)cccc2Cl)c(Cl)c1 (stereo unspecified) in this assay.
OUT: active

IN: Returns: the outcome recorded for CC1=C(C(=O)O)N2C(=O)[C@@H](NC(=O)[C@H](N)C3=CCC=CC3)[C@H]2SC1 in this assay.
OUT: inactive

IN: Returns: the outcome recorded for CC(C)CC(=O)N[C@H](C(=O)N[C@H](C(=O)N[C@@H](CC(C)C)[C@@H](O)CC(=O)N[C@@H](C)C(=O)N[C@@H](CC(C)C)[C@@H](O)CC(=O)O)C(C)C)C(C)C (Isovaleryl-VV[Sta]A[Sta]-OH) in this assay.
OUT: inactive

* * *

# experiment description: Quantitative High-Throughput drug screen in 47 multiple myeloma cell lines against the NCATS MIPE library collection: XG1_PLB cell viability assay (AID 1919866); note: nearly all actives have a fitted effect of over 35% in size
# protocol conditions: CellTiter-Glo ATP, 48 h; series mostly up to 45.8 µM
Records with an inconclusive call do not appear. Activity calls are given as the source filed them. Calls follow the shape of the dose curve; as a rule, active = well fitted cell-killing curve with a large enough effect; inconclusive = small, poorly fitted or top-dose-only effect, or effect the other way; inactive = no such curve, though single readings can be large or run the other way.
Write down one outcome, taken from true (1) = active, false (0) = inactive

IN: Returns: the outcome recorded for Cc1nc2n(c(=O)c1CCN1CCC(c3noc4cc(F)ccc34)CC1)CCCC2 in this assay.
OUT: false (0)

IN: Returns: the outcome recorded for O=c1ccc2ccc(O)c(O)c2o1 in this assay.
OUT: true (1)

IN: Returns: the outcome recorded for Cc1cc(C2CCCCC2)n(O)c(=O)c1 in this assay.
OUT: true (1)

IN: Returns: the outcome recorded for NC(=O)Cc1cccc(C(=O)c2ccccc2)c1N in this assay.
OUT: false (0)

IN: Returns: the outcome recorded for COc1ccccc1N1CCN(CCN(C(=O)C2CCCCC2)c2ccccn2)CC1 in this assay.
OUT: true (1)

IN: Returns: the outcome recorded for NS(=O)(=O)c1cc(C(=O)O)c(NCc2ccco2)cc1Cl in this assay.
OUT: false (0)

IN: Returns: the outcome recorded for CCN(CC)CCOc1ccc(Nc2ncc3cc(-c4c(Cl)cccc4Cl)c(=O)n(C)c3n2)cc1 in this assay.
OUT: true (1)

IN: Returns: the outcome recorded for CC(=O)O[C@H]1C(=O)[C@@]2(C)C([C@H](OC(=O)c3ccccc3)[C@]3(O)C[C@H](OC(=O)[C@H](O)[C@@H](NC(=O)c4ccccc4)c4ccccc4)C(C)=C1C3(C)C)[C@]1(OC(C)=O)CO[C@@H]1C[C@@H]2O (stereo partly specified) in this assay.
OUT: false (0)

IN: Returns: the outcome recorded for CCC[C@@H]1C[C@@H](C(=O)N[C@@H]([C@H]2O[C@H](SC)[C@H](O)[C@@H](O)[C@H]2O)[C@@H](C)O)N(C)C1 in this assay.
OUT: false (0)

IN: Returns: the outcome recorded for Cn1c(NCCN(CCO)CCCc2ccc([N+](=O)[O-])cc2)cc(=O)n(C)c1=O in this assay.
OUT: true (1)

IN: Returns: the outcome recorded for Cc1cccc(C)c1OCC(=O)N[C@@H](Cc1ccccc1)[C@@H](O)C[C@H](Cc1ccccc1)NC(=O)[C@H](C(C)C)N1CCCNC1=O in this assay.
OUT: true (1)

IN: Returns: the outcome recorded for CCOC(=O)C(C)Oc1cccc2c(=O)n(CC(=O)Nc3ccc4c(c3)OCCO4)ccc12 (stereo unspecified) in this assay.
OUT: false (0)

IN: Returns: the outcome recorded for S=c1nc[nH]c2nc[nH]c12 in this assay.
OUT: true (1)

IN: Returns: the outcome recorded for N[C@@H](Cc1cc(I)c(Oc2cc(I)c(O)c(I)c2)c(I)c1)C(=O)O in this assay.
OUT: false (0)

IN: Returns: the outcome recorded for CN1C(C(=O)Nc2ccccn2)=C(O)c2sccc2S1(=O)=O in this assay.
OUT: false (0)

IN: Returns: the outcome recorded for O=C(NC(Cc1cc(=O)[nH]c2ccccc12)C(=O)O)c1ccc(Cl)cc1 (stereo unspecified) in this assay.
OUT: true (1)

IN: Returns: the outcome recorded for NCCCCNCCCN in this assay.
OUT: true (1)

IN: Returns: the outcome recorded for O=c1c(O)c(-c2ccc(O)cc2O)oc2cc(O)cc(O)c12 in this assay.
OUT: true (1)

IN: Returns: the outcome recorded for COc1c2occc2cc2ccc(=O)oc12 in this assay.
OUT: true (1)

IN: Returns: the outcome recorded for C=CCc1cc(OC)c(O)c(C(=O)NCCO)c1 in this assay.
OUT: false (0)

IN: Returns: the outcome recorded for CC1(C)CCC(C)(C)c2cc(NC(=O)c3ccc(C(=O)O)cc3)ccc21 in this assay.
OUT: true (1)
